Assay: Plasma and nerve tissue pharmacokinetics, single oral dose in non-fasted mice
Type: in vivo
Conditions: male, CD-1, mouse, plasma, 50 mg/kg
MEASURED QUANTITY: MRT inf (h)
Numbers only, in h.

Which MRT inf value belongs to O=C(N[C@H]1CC[C@H](O)CC1)C1CC1CCCc1ccccc1 (stereo partly shown) ?
3.58

---

Assay: Plasma and nerve tissue pharmacokinetics, single oral dose in non-fasted mice
Assay type: in vivo
Details: male, CD-1, mouse, plasma, 50 mg/kg
MEASURED QUANTITY: Tmax (min)
Numbers only, in min.

Entry O=C(N[C@H]1CC[C@H](O)CC1)C1CC1CCCc1ccccc1 (stereo partly shown) has what Tmax?
30
